tested on: MS2 coat protein; test: apparent KD of MS2 coat protein; higher = weaker reporter binding; settings: Eterna round: R107; input ligand: theophylline 20 uM

>  <sequence_string>
GCAUCCUAGUCGGCCGCCACUGCAACAUGAGGAUCACCCAUGUACUGCACAUGGGAAUGCAGUAGCAGGACCGGGACUAGGAUGC [(T1)-(M1)-(M2)-(T)''-(M)'-(T)'-(T2)_Design2_2/18/17]

>  <apparent KD of MS2 coat protein>
268 nM

$$$$
>  <sequence_string>
UGGUACAUGGCGGCCGCCACUUCACGUAAAAUAAAAACUUGAGGAUCACCCAAGUAAUAAGUUGGGAGGACCGGGUCAUGUACCU

>  <apparent KD of MS2 coat protein>
23.2 nM

$$$$
>  <sequence_string>
ACUAGAGGUGGAAGGAGCGGGAGACAUGAGGAUCACCCAUGUGAAGUUUCGAGAGGAUCAUCCCAGGUAGGUCGCCAUGUCGAAA [vvbvmullin]

>  <apparent KD of MS2 coat protein>
46.9 nM

$$$$
>  <sequence_string>
UAACAUGAGGAUCACCCAUGUUUAGAAGAACGAGGACCGGUACGGCCGCCACUCGAAAAGUGGAAGAAAAGAGGGAUAGAAUGAU [Same State Trp A GF1]

>  <apparent KD of MS2 coat protein>
16 nM

$$$$
>  <sequence_string>
UGUAUGGACUGAAGGAGCGGGUAAAUAACUUGAGGAUCACCCAGGUAAAAGGCGAAAGCCACCCAGGUAGGUCGCAGUCCAUACU

>  <apparent KD of MS2 coat protein>
32.1 nM

$$$$
>  <sequence_string>
UUAAUCAGGUUAGAAAACUAAUUUGCAGAAGGAGCGUGAUAAAACACAGGUAGGUCGCUGAAGGGAACAUGAGGAUCACCCAUGU [AstrosSSArgA#10]

>  <apparent KD of MS2 coat protein>
32.7 nM

$$$$
>  <sequence_string>
GGAUAGGACACGGCCGCCACUAGCUAGGAUACUAGCAACAUUUCCUCAGAUGAGGAUCACCCAUCUAGGACCGGGUGUCCUAUCG

>  <apparent KD of MS2 coat protein>
36.5 nM

$$$$
>  <sequence_string>
AAUGGUCGUACUGGAAUGGUGAUCCUCAAACGAGGACCGGUACGGCCGCCACUCGAUAACAUGAGGAUCACCCAUGUAAUAAUAA [|T'-M'-Trp-Ms2|_Design13b]

>  <apparent KD of MS2 coat protein>
67.4 nM

$$$$
>  <sequence_string>
AAUAACAUGAGGAUCACCCAUGUAAAAGAUACCAGAGUGAUGAUCCUCCCUUGGCAGCUUAAAACGCUAUUGAUUACAAUAGCGA [Mat - Same State Theophlline A - Mod of Eli - D4]

>  <apparent KD of MS2 coat protein>
99 nM

$$$$
>  <sequence_string>
AUAAUGGGUAUCGGAUUAUCAUGGAAUGAUACCAGAUACUUAGAUAUCCCUUGGCAGCAUGAGGACAUGAGGAUCACCCAUGUAU [#03 Exclusion-TheophyllineA]

>  <apparent KD of MS2 coat protein>
56.9 nM

$$$$
>  <sequence_string>
CAUGUUAGGGCGGCCGCCACUGUGGCUACGGUACAUGAGGAUCACCCAUGUUUGUGGUUGAUCUACAGGACCGGGCCCUGACACG [Erarusge]

>  <apparent KD of MS2 coat protein>
578 nM

$$$$
>  <sequence_string>
ACAUGAGGAUCACCCAUGUAUCAACGGGAAGGAGCGCCAAACAAGGCAGGUAGGUCGCCCACAUGAGGAUCACCCAUGUGUUGGU [Exclusion Arginine A GF 29]

>  <apparent KD of MS2 coat protein>
25.8 nM

$$$$
>  <sequence_string>
GGAUAGGACACGGCCGCCACUGCGGCUAGAUACUAGCACAUUUCCUCACAUGAGGAUCACCCAUGUAGGACCGGGUGUCCUAUCG

>  <apparent KD of MS2 coat protein>
122 nM

$$$$
>  <sequence_string>
ACAUGAAGAACAGCGGUGGGCGCGCUCGAUACCAGUAUUUUAAAUUACCCUUGGCAGCGACAUGAGGAUCACCCAUGUGAGAUGA [XTheo A #5]

>  <apparent KD of MS2 coat protein>
24.8 nM

$$$$
>  <sequence_string>
GCAUCCUAGUCGGCCGCCACUGCAUGUUGGCAGUGCUGCAACAUACAUGAGGAUCACCCAUGUUGCAGGACCGGGACUAGGAUGC [(Trp1)-(MT2)''-(T1)'-(MT2)'-(Ms2)-(Trp2)_Design1]

>  <apparent KD of MS2 coat protein>
28.7 nM

$$$$
>  <sequence_string>
ACAUGAGGAUCACCCAUGUAAUAAUCAGAAGGAGCGUGGAAUAACACAGGUAGGUCGCUGAUGUUUGGUUAAAUGUAAUCGUGUA [JR_SSArginiA_Sub001]

>  <apparent KD of MS2 coat protein>
18.1 nM

$$$$
>  <sequence_string>
UCGCUCGCCGCAAGGCGAGCGAGUUGCGAUACCAGCCCGGAAACGGGCCCUUGGCAGCGCACAUGAGGAUCACCCAUGUCAUGUU [#1 Exclusion - Theophylline A Attempt #4 (HarryS)]

>  <apparent KD of MS2 coat protein>
31.3 nM

$$$$
>  <sequence_string>
CACAGUGCGAAUUUGAAUUCGCACGAUCCUCGAGGACCGGUACGGCCGCCACUCGCGCGGGUCGUACAUGAGGAUCACCCAUGUC [Quermavebe]

>  <apparent KD of MS2 coat protein>
233 nM

$$$$
>  <sequence_string>
UUGUUGUUUGGAAGGAGCGUGGAUGAGUGAGAACAUGAGGAUCACCCAUGUUGUAUGAUACCGCAGGUAGGUCGCCGGGUGGUGG [11.aB]

>  <apparent KD of MS2 coat protein>
39.6 nM

$$$$
>  <sequence_string>
UAUCCACAUGAGGAUCACCCAUGUAGGGAAGGAGCGGUGAUUUCACCAGGUAGGUCGCCUUGCUCAGGGUUGCCGGUGGAAUCGU [Exclusion - Arginine A (Freestyle 34)]

>  <apparent KD of MS2 coat protein>
19.7 nM

$$$$
>  <sequence_string>
AAUAAUAAGGCGGCCGCCACUAAACAUGAGGAUCACCCAUGUCUCGCGGGCUUGCGUUGGGAAAGUAGGACCGGGCCAAUAAUAA [Exclusion - Tryptophan B (Freestyle 8)]

>  <apparent KD of MS2 coat protein>
20.6 nM

$$$$
>  <sequence_string>
ACAUUUAACUGAAGGAGCGUGAAUAACAUGAGGAUCACCCAUGUAACUUAGAUGCUUAUUUCACAGGUAGGUCGCAGACUAAUGA [JR_ExcArginiB_Sub010]

>  <apparent KD of MS2 coat protein>
13.7 nM

$$$$
>  <sequence_string>
UUAGAUAUGACAGAUACCAGCGUGUUGUAGAACAUGAGGAUCACCCAUGUAGUGAUCGAGCGCCCUUGGCAGCUGGUGUGUUUGG [7.S]

>  <apparent KD of MS2 coat protein>
303 nM

$$$$
